- Measurement Description: melting temperature; fluorescence melt of hairpins on a sequencing array, two-state fit, raised by 9.35 °C to match UV melts
- Particulars: sodium 0.088 M
Each entry below lists one item and its recorded Tm value.
The figure you give is taken to be in °C; do not add the unit.

Here is how some sequences turned out for Tm.
Asked: Quick one: Tm of GATCTGGCTACAGATC ((((((....)))))) ?
Given back: 59.4

Asked: Next entry: GCTGACGGAAACATCAGC (((((.(....).)))))
Given back: 44.3

Asked: Next entry: GCGCGTCGAAAGACCGC (((.(((....))))))
Given back: 67.3

Asked: Next entry: GCCGTCGAAAGACTGGGC ((((((....)))..)))
Given back: 53.7

Asked: Next entry: GATCTTTGCTAAGATC ((((((....))))))
Given back: 46

Asked: Next entry: GCGTTGCGAAAGCCAGGC ((.(.((....)).).))
Given back: 40.3

More entries:
Asked: Quick one: Tm of GCTAGGGGAAACCCTAAC (.(((((....))))).) ?
Given back: 32.1

Asked: Next entry: GGGCGCCGAAAGGCTCCC (((.(((....))).)))
Given back: 60.7

* * *

Each entry below lists one item and its recorded Tm value.
- Measurement Description: melting temperature; fluorescence melt of hairpins on a sequencing array, two-state fit, raised by 9.35 °C to match UV melts
- Particulars: sodium 0.088 M
The figure you give is taken to be in °C; do not add the unit.

Here is how some sequences turned out for Tm.
Asked: Quick one: Tm of GTGGATCGAAAGATGCAC (((.(((....))).))) ?
Given back: 55.9

Asked: Next entry: GAGTGCGAAAGCACCCTC ((((((....)))..)))
Given back: 45.1

Asked: Next entry: GTCTTTGGAAACAAAGAC (((((((....)))))))
Given back: 56.5

Could you now consider this next sequence?
Asked: Quick one: Tm of GTCGTGGGAAACTACGAC (((((.(....).))))) ?
Given back: 53.9

* * *

Each entry below lists one item and its recorded Tm value.
- Measurement Description: melting temperature; fluorescence melt of hairpins on a sequencing array, two-state fit, raised by 9.35 °C to match UV melts
- Particulars: sodium 0.088 M
The figure you give is taken to be in °C; do not add the unit.

Asked: Quick one: Tm of GCGAAGGTCGC ((((...)))) ?
Given back: 49.9

Asked: Next entry: GACGTAGAAATACGTC ((((((....))))))
Given back: 55

Asked: Next entry: GTCGGGCGAAAGCCGAC (((.(((....))))))
Given back: 68.6

Asked: Next entry: GGGCAAACGAAAGTTCCC (((..(((....))))))
Given back: 35.6

Asked: Next entry: GGCGAGGGAAACCTCACC ((.((((....)))).))
Given back: 48.5

More entries:
Asked: Quick one: Tm of GAAACCGAAAGGTCTTTC ((((((....)))..))) ?
Given back: 32.3

Asked: Next entry: GGATCGCCGAAAGGCTCC (((..(((....))))))
Given back: 30.4

Asked: Next entry: GTAACGCGAAAGCGCTAC (((.(((....))).)))
Given back: 51.9

* * *

Each entry below lists one item and its recorded folding enthalpy value.
- Measurement Description: folding enthalpy; higher = less favourable; fluorescence melt of hairpins on a sequencing array, two-state fit
- Particulars: sodium 0.088 M

Asked: Quick one: folding enthalpy of GCACGCGAAAGCGTTTGC ((((((....)))..))) ?
Given back: -10.6 kcal/mol

Asked: Next entry: GTACACGGAAACATGTAC (((((.(....).)))))
Given back: -28.3 kcal/mol

Asked: Next entry: GCATCGCGAAAGCAGTGC (((..((....))..)))
Given back: -18 kcal/mol

More entries:
Asked: Quick one: folding enthalpy of GGGGCAGGAAACCACCCC ((((..(....)..)))) ?
Given back: -28.6 kcal/mol

Asked: Next entry: GATCATACAGATGATC ((((((....))))))
Given back: -35.8 kcal/mol

Asked: Next entry: GACCTGAAAAGGTC (((((....)))))
Given back: -27.9 kcal/mol

Asked: Next entry: GATCGTTTCTACGATC ((((((....))))))
Given back: -43 kcal/mol

Asked: Next entry: CGGCCGGAAACGGTACCG ((((((....)))..)))
Given back: -18.4 kcal/mol

Asked: Next entry: ACTTTGAAAAAAGT (((((....)))))
Given back: -8.08 kcal/mol

Asked: Next entry: GATCCGGACCGGATC ((((((...))))))
Given back: -34.6 kcal/mol

Asked: Next entry: GAAGACGAAAGTCGGTTC ((((((....)))..)))
Given back: -12.8 kcal/mol

Asked: Next entry: GGCTGCGAAAGCATGGCC ((((((....)))..)))
Given back: -31.8 kcal/mol

* * *

- Measurement Description: folding enthalpy; higher = less favourable; fluorescence melt of hairpins on a sequencing array, two-state fit
- Particulars: sodium 0.088 M
Readout Kind: folding enthalpy (kcal/mol)
The figure you give is taken to be in kcal/mol; do not add the unit.

Asked: Quick one: folding enthalpy of GCATGACGAAAGTCTTGC (((.(((....))).))) ?
Given back: -38.3

Asked: Next entry: GCAGACGAAAGTCCGTGC ((((((....)))..)))
Given back: -15.1

Asked: Next entry: GCCCTTCGAAAGAAGGC (((.(((....))))))
Given back: -21.4

Asked: Next entry: GCGCTACGAAAGTACGC (((.(((....))))))
Given back: -32.2

Asked: Next entry: GGCCCTACGAAAGTAGCC (((..(((....))))))
Given back: -15.3

More entries:
Asked: Quick one: folding enthalpy of GTTACGGGAAACCGTGAC ((.((((....)))).)) ?
Given back: -29.8

Asked: Next entry: GATCGGGGGTCCGATC ((((((....))))))
Given back: -34.3

Asked: Next entry: GCCTGAACGAAAGTTGGC (((..(((....))))))
Given back: -23.2

Asked: Next entry: GGCGACGAAAGTCGAGCC ((((((....)))..)))
Given back: -15.9

* * *

- Measurement Description: folding enthalpy; higher = less favourable; fluorescence melt of hairpins on a sequencing array, two-state fit
- Particulars: sodium 0.088 M
Mark yes (1) for reported folding enthalpy of -30 kcal/mol or greater; mark no (0) for anything smaller.

As a guide, the following entries are already answered.
Asked: Please check the record GTGTACGAAAGTATTCAC ((((((....)))..))) and state if its folding enthalpy is at or above -30 kcal/mol.
Given back: yes (1)

Asked: Next entry: GCAATGCGAAAGCATGGC ((.((((....)))).))
Given back: no (0)

# evaluate next
Asked: Please check the record GATCCAGTCTTGGATC ((((((....)))))) and state if its folding enthalpy is at or above -30 kcal/mol.
Given back: no (0)

* * *

- Measurement Description: melting temperature; fluorescence melt of hairpins on a sequencing array, two-state fit, raised by 9.35 °C to match UV melts
- Particulars: sodium 0.088 M
Readout Kind: Tm (°C)
The figure you give is taken to be in °C; do not add the unit.

Here is how some sequences turned out for Tm.
Asked: Quick one: Tm of GGTACCGAAAGGTTAACC ((((((....)))..))) ?
Given back: 38.6

Asked: Next entry: GGAGTAGGAAACTACTTC (.(((((....))))).)
Given back: 44.4

Asked: Next entry: GTTGGAGGAAACTTCAAC ((((.((....)).))))
Given back: 41.9

Asked: Next entry: GTATCCGAAAGGAATAC ((((((....))).)))
Given back: 40.4

Asked: Next entry: GGCGTCGGAAACGGTGCC (((..((....))..)))
Given back: 51.6

More entries:
Asked: Quick one: Tm of GGGCTCGAAAGAGCACCC ((((((....)))..))) ?
Given back: 58.1

* * *

- Measurement Description: melting temperature; fluorescence melt of hairpins on a sequencing array, two-state fit, raised by 9.35 °C to match UV melts
- Particulars: sodium 0.088 M
Readout Kind: Tm (°C)
The figure you give is taken to be in °C; do not add the unit.

Here is how some sequences turned out for Tm.
Asked: Quick one: Tm of GCGTGAGGACGC ((((....)))) ?
Given back: 50.8

Asked: Next entry: GTTACCGAAAGGTGGAAC ((((((....)))..)))
Given back: 28.1

Asked: Next entry: CGAGGCGGAAACGCGTCG (((.(((....))).)))
Given back: 62.5

Asked: Next entry: GGGAAGGGAAACTTTCCC (((((.(....).)))))
Given back: 45.5

Asked: Next entry: GACTCTGAAAAGAGTC ((((((....))))))
Given back: 58

Asked: Next entry: GTATCTGGAAACAGGTAC (((.(((....))).)))
Given back: 42.7

More entries:
Asked: Quick one: Tm of GCTTGGCGAAAGCAAGGC ((.(.((....)).).)) ?
Given back: 45.6

Asked: Next entry: GCGAAATCTCGC ((((....))))
Given back: 45.2

Asked: Next entry: GCGCCCGAAAGGGACGC ((((((....))).)))
Given back: 68.1

Asked: Next entry: GGGGATCGAAAGATACCC (((.(((....))).)))
Given back: 62.3

Asked: Next entry: GCCGGTGGAAACACCGAC (.(((((....))))).)
Given back: 55.3

Asked: Next entry: GCCCGTGGAAACACAGGC (((.(((....))).)))
Given back: 50.4

Asked: Next entry: GTGAGACCGAAAGGTCAC (((..(((....))))))
Given back: 50.4

Asked: Next entry: GATCGTATAAACGATC ((((((....))))))
Given back: 54.7

# credit: the array DNA melting data of Ke et al. (doi:10.1101/2024.01.08.574731)
